- STUDY SYSTEM: human GCG receptor (human, UniProt P47871 26-477)
- Sequence (P47871 26-477): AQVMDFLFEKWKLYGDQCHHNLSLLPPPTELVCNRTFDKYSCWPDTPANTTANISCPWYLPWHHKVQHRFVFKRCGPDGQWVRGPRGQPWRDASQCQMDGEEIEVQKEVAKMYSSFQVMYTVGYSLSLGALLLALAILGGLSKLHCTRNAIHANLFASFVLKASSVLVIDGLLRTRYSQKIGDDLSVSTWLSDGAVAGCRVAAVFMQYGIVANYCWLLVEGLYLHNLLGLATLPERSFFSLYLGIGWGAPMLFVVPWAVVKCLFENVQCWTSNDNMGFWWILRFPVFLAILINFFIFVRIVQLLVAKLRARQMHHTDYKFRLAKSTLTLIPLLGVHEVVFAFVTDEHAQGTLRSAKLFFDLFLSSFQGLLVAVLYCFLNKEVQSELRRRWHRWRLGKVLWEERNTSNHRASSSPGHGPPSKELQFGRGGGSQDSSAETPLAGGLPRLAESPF
- METHOD NOTES: cell-based or functional assay
Positions of bridges follow the written chain, without caps; N, C: chain ends. Non-standard residues stand in square brackets, D forms with d. No end group written: not given here. *: point of attachment. Acetyl(2-(4-imidazolyl)) = O=C(Cc1c[nH]cn1)*; Aib = CC(C)(N)C(=O)O
Listed binders paired with reported In vitro activity relative to native peptide (%), vs. Glucagon (cAMP EC50)

Record excerpt, results attached:
INSERT INTO measurements (binder, result) VALUES
  ('{Acetyl(2-(4-imidazolyl))}-[Aib]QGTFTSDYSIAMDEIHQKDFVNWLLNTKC (bridge 15-19) [trigonal agonist of SEQ ID NO: 94]', '< 0.1%'),
  ('H[Aib]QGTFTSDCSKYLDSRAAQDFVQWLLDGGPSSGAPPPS [trigonal agonist of SEQ ID NO: 26]', '0.2%');

For the next question, use this binder.
The binder listed as {Acetyl(2-(4-imidazolyl))}-[Aib]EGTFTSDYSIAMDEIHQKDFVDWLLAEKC (bridge 15-19) [trigonal agonist of SEQ ID NO: 91] has a reported In vitro activity relative to native peptide (%), vs. Glucagon (cAMP EC50) of 16.8%
